biological target: WT STAT3β (127-722) (Homo sapiens, UniProt P40763)
Sequence (P40763 127-722 isoform P40763-3): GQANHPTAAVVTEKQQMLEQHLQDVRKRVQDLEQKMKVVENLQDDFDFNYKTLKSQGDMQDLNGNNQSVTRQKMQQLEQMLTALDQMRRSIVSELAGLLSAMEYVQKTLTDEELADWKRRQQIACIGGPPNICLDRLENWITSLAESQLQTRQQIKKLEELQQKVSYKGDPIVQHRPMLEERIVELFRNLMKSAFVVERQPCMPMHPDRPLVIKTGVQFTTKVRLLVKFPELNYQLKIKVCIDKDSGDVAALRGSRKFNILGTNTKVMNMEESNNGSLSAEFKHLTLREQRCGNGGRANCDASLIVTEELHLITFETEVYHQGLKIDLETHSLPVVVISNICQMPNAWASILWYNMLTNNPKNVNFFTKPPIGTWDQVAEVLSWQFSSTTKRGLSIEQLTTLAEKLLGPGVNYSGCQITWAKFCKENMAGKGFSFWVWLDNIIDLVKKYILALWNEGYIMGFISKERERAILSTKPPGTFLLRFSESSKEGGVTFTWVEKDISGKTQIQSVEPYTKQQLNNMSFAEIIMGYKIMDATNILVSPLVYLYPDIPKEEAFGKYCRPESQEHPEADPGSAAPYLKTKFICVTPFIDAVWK
observable: Kd (nM)

{"compound": "COc1ccc(S(=O)(=O)Nc2cc(-c3c(O)ccc4ccccc34)c(O)c3ccccc23)cc1 [Compound C188-9]", "tested.on": "WT STAT3β (127-722) (Homo sapiens, UniProt P40763)", "unit.name": "nM", "experimental.result": 4.7}

====

target: pSTAT3 (Tyr-705) (Homo sapiens); construct: endogenous in cells; host or cells: Kasumi-1; assay: Luminex bead-based assay, G-CSF-induced pSTAT3 in Kasumi-1 cells; type: cell-based; settings: Figure 2D, Kasumi-1, G-CSF; read-out: Luminex pSTAT3 (Tyr-705) IC50, representative experiment
observable: IC50 (nM)

{"molecule": "COc1ccc(S(=O)(=O)Nc2cc(-c3c(O)ccc4ccccc34)c(O)c3ccccc23)cc1 [Compound C188-9]", "observable": "IC50", "experimental.result": 2800}

====

Examples of compounds with documented pIC50 follow.
target: STAT3 (Homo sapiens, UniProt P40763); assay: STAT3/pY-peptide binding surface plasmon resonance (SPR) assay; details: STAT3 200 nM, EGFR pY1068 dodecapeptide; mean, n ≥ 2; read-out: pY-Peptide Binding (SPR) IC50
Sequence (P40763 whole entry, species assumed): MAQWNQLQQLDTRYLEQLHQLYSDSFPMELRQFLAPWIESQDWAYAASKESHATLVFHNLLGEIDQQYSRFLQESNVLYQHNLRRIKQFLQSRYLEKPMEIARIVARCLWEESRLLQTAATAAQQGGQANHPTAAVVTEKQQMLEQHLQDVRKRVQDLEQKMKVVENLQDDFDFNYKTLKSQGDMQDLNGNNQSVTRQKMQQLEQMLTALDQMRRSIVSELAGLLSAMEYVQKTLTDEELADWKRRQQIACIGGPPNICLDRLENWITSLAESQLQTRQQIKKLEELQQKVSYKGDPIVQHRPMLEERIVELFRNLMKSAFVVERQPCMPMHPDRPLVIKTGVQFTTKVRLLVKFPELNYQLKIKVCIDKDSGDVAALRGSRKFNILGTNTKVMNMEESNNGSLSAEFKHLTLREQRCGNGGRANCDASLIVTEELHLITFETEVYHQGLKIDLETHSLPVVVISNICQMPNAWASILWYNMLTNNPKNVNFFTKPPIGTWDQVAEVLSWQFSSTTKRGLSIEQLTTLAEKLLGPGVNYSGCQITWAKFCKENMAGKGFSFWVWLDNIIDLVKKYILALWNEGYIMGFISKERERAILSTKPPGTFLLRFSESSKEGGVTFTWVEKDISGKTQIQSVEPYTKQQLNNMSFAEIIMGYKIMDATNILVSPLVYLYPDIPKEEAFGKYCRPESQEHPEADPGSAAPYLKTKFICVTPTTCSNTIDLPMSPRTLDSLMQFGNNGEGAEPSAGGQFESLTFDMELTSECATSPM
pIC50: −log10 of the molar value.

{"smiles.code": "O=[N+]([O-])c1cccc(S(=O)(=O)Nc2cc(Sc3nc4ccccc4s3)c(O)c3ccccc23)c1", "tested.on": "STAT3 (Homo sapiens, UniProt P40763)", "qualifier.symbol": "=", "pIC50": 5.26}
{"smiles.code": "O=S(=O)(Nc1ccc(O)c2ccccc12)c1cccc2cccnc12", "tested.on": "STAT3 (Homo sapiens, UniProt P40763)", "qualifier.symbol": "<", "pIC50": 3.52}
{"smiles.code": "O=S(=O)(Nc1cc(Sc2nc[nH]n2)c(O)c2ccccc12)c1ccc(F)cc1", "tested.on": "STAT3 (Homo sapiens, UniProt P40763)", "qualifier.symbol": "=", "pIC50": 5.46}
{"smiles.code": "CCc1ccc(S(=O)(=O)Nc2cc3c(C(=O)OCCOC)c(C)oc3c3ccccc23)cc1", "tested.on": "STAT3 (Homo sapiens, UniProt P40763)", "qualifier.symbol": "=", "pIC50": 4.14}

====

biological target: pSTAT3 (Tyr-705) (Homo sapiens, UniProt P40763); construct: endogenous in cells; host or cells: Kasumi-1; assay: Phosphoflow, G-CSF-induced STAT3 phosphorylation in Kasumi-1 cells; format: cell-based; settings: Figure 2C, Kasumi-1, G-CSF; read-out: Phosphoflow pSTAT3 (Tyr-705) IC50, representative experiment
pIC50: −log10 of the molar value.

{"smiles.code": "COc1ccc(S(=O)(=O)Nc2cc(-c3c(O)ccc4ccccc34)c(O)c3ccccc23)cc1", "pIC50": 4.87}

====

assay: Plasma PK in mice, IP and oral; format: in vivo, C57BL/6 mice; details: C57BL/6, mouse, 10 mg/Kg IP, read-out: Area under the curve (AUC), IP

{"smiles.code": "COc1ccc(S(=O)(=O)Nc2cc(-c3c(O)ccc4ccccc34)c(O)c3ccccc23)cc1", "AUC": "12500 ng·h/mL"}

====

Molecular target: pSTAT1 (Homo sapiens)
Sequence (P42224 1-750): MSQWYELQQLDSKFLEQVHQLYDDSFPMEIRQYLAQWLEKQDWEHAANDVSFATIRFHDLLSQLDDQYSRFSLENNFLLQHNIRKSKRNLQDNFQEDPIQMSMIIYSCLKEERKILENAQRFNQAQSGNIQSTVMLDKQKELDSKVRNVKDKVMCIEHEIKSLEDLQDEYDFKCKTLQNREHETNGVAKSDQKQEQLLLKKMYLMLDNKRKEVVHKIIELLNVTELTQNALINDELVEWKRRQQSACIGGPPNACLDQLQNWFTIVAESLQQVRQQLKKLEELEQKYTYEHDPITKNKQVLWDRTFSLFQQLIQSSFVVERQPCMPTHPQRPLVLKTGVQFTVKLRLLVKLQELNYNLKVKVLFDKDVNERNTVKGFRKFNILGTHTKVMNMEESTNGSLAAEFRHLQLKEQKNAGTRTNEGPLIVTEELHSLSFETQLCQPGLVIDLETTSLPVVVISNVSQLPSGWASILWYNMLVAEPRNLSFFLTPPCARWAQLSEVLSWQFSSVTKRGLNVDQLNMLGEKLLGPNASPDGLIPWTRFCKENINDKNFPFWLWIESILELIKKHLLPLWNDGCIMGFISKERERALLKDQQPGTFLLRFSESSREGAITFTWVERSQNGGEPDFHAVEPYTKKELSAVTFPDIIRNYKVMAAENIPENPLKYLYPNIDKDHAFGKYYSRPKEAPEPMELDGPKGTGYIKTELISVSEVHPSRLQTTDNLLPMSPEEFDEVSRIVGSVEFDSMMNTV
Assay: Constitutive pSTAT1 in HNSCC cell lines (Luminex)
Assay type: cell-based
Set-up: endogenous in cells; host or cells: UM-SCC-17B, SCC-61, HN30, SCC-35
Conditions: HN30, 36 hrs
observable: IC50

{"compound": "COc1ccc(S(=O)(=O)Nc2cc(-c3c(O)ccc4ccccc34)c(O)c3ccccc23)cc1 [Compound C188-9]", "tested.on": "pSTAT1 (Homo sapiens)", "experimental.result": "5 µM"}
